area over the GR curve reference
Test system: SKBR3
Experiment: area over the GR curve, 72 h; higher = more effect

Please review the following examples before continuing.
compound: COc1cc2c(Oc3ccc4[nH]c(C)cc4c3F)ncnc2cc1OCCCN1CCCC1 [Cediranib/AZD2171] (max 10 µM)
obs value: 0.063 GR
--
compound: CN(C)C/C=C/C(=O)Nc1ccc(C(=O)Nc2cccc(Nc3ncc(Cl)c(-c4c[nH]c5ccccc45)n3)c2)cc1 [THZ1] (max 1 µM)
obs value: 0.673 GR
--
compound: O=C1NC(=O)[C@@H](c2cn3c4c(cccc24)CCC3)[C@@H]1c1c[nH]c2ccccc12 [Tivantinib/ARQ197] (max 10 µM)
obs value: 0.479 GR
--
compound: COc1cc(N2CCN(C)CC2)ccc1Nc1ncc2c(n1)N(C)c1ccccc1C(=O)N2CC(F)(F)F
obs value: 0.0465 GR
--
compound: Cc1nn(C)c(COc2ccc(N3CCN(S(=O)(=O)N(C)C)CC3)cc2)c1-c1cccc2c(CCCOc3cccc4ccccc34)c(C(=O)O)n(CCN3CCOCC3)c12 (max 10 µM)
obs value: 0.0389 GR
--
compound: CCc1cncnc1N1CCN(Cc2nc3ccc(C(F)(F)F)cc3[nH]2)CC1 (max 10 µM)
obs value: 0.0204 GR
--
compound: CNc1nc(-c2ccc3c(N)n[nH]c3c2)cc(N2C[C@@H](C(=O)NC3CCCCC3)CC[C@H]2C)n1 (max 10 µM)
obs value: 0.318 GR
--
compound: CCC(=O)Nc1ccc(C(=O)Nc2ccc(Nc3ncc4c(n3)N(C)c3ccc(C)cc3C(=O)N4C)cc2)cc1
obs value: 0.464 GR

Return the recorded area over the GR curve value; entry: CN1CCN(C(=O)c2ccc3cc(CCNc4ncnc5ccc(C#N)cc45)ccc3c2)CC1 [senexin b] (max 10 µM)
0.172 GR

Retrieve area over the GR curve measured for NC(=O)Nc1cc(-c2cccc(F)c2)sc1C(=O)N[C@H]1CCCNC1 [AZD7762] (max 10 µM) and print it.
0.88 GR

----------
Tested on: EFM19
Assay: area over the GR curve, 72 h; higher = more effect
Each entry below carries its recorded area over the GR curve.
Quick reminder: number only, in GR, skip the unit.

compound: CC[C@@H]1C(=O)N(C)c2cnc(Nc3ccc(C(=O)N[C@H]4CC[C@H](N5CCN(CC6CC6)CC5)CC4)cc3OC)nc2N1C(C)C [Volasertib/BI6727] (max 1 µM)
system name: EFM19
unit of measurement: GR
obs value: 0.741

compound: CC(=O)Nc1cccc(-n2c(=O)n(C3CC3)c(=O)c3c(Nc4ccc(I)cc4F)n(C)c(=O)c(C)c32)c1 (max 1 µM)
system name: EFM19
unit of measurement: GR
obs value: -0.1

compound: O=C(c1cc(Cc2n[nH]c(=O)c3ccccc23)ccc1F)N1CCN(C(=O)C2CC2)CC1 [Olaparib/AZD2281] (max 10 µM)
system name: EFM19
unit of measurement: GR
obs value: 0.0595

Kindly indicate its recorded area over the GR curve. Item: O=C1NC(=O)[C@@H](c2cn3c4c(cccc24)CCC3)[C@@H]1c1c[nH]c2ccccc12 [Tivantinib/ARQ197] (max 10 µM)
0.361

Fill in reported area over the GR curve for this entry: CN(C)C/C=C/C(=O)Nc1ccc(C(=O)Nc2cccc(Nc3cc(-c4c[nH]c5ccccc45)ncn3)c2)cc1 [THZ-P1-2] (max 10 µM)
0.131

// fetch area over the GR curve given entry Cc1nn(C)c(COc2ccc(N3CCN(S(=O)(=O)N(C)C)CC3)cc2)c1-c1cccc2c(CCCOc3cccc4ccccc34)c(C(=O)O)n(CCN3CCOCC3)c12 (max 10 µM)
-0.0581

Give recorded area over the GR curve. CN(C)C/C=C/C(=O)Nc1ccc(C(=O)N2CCC[C@@H](Nc3ncc(Cl)c(-c4c[nH]c5ccccc45)n3)C2)cc1 [THZ531] (max 1 µM)
0.167

----------
Test system: BT474
Test: area over the GR curve, 72 h; higher = more effect
quantity kind: area over the GR curve (GR)
Number only, in GR; omit the unit.

Sample answers from the record:
compound: Cc1nc(Nc2ncc(C(=O)Nc3c(C)cccc3Cl)s2)cc(N2CCN(CCO)CC2)n1 [Dasatinib] (max 10 µM)
system name: BT474
obs value: 0.695
//
compound: O=C(c1cc(Cc2n[nH]c(=O)c3ccccc23)ccc1F)N1CCN(C(=O)C2CC2)CC1 [Olaparib/AZD2281] (max 10 µM)
system name: BT474
obs value: 0.0431
//
compound: Cc1nn(C)c(COc2ccc(N3CCN(S(=O)(=O)N(C)C)CC3)cc2)c1-c1cccc2c(CCCOc3cccc4ccccc34)c(C(=O)O)n(CCN3CCOCC3)c12 (max 10 µM)
system name: BT474
obs value: -0.0275
//
compound: Cc1nc(NC(=O)N2CCC[C@H]2C(N)=O)sc1-c1ccnc(C(C)(C)C(F)(F)F)c1 [Alpelisib/BYL719] (max 10 µM)
system name: BT474
obs value: 0.468
//
compound: CCOc1cc2ncc(C#N)c(Nc3ccc(OCc4ccccn4)c(Cl)c3)c2cc1NC(=O)/C=C/CN(C)C [Neratinib/HKI272] (max 3.162 µM)
system name: BT474
obs value: 1.43

Kindly indicate its recorded area over the GR curve. Item: CN(C)C(=O)c1cc2cnc(Nc3ccc(N4CCNCC4)cn3)nc2n1C1CCCC1 [LEE011/Ribociclib] (max 10 µM)
0.412

Given the compound CCN1CCN(Cc2ccc(Nc3ncc(F)c(-c4cc(F)c5nc(C)n(C(C)C)c5c4)n3)nc2)CC1 (max 10 µM) , write its reported area over the GR curve.
0.329

----------
Test system: MDAMB453
Assay: area over the GR curve, 72 h; higher = more effect
quantity kind: area over the GR curve (GR)
Just the number in GR, nothing appended.

Please indicate area over the GR curve recorded for CC(=O)c1c(C)c2cnc(Nc3ccc(N4CCN(CCOCCOCCOCCNC(=O)COc5cccc6c5C(=O)N(C5CCC(=O)NC5=O)C6=O)CC4)cn3)nc2n(C2CCCC2)c1=O (stereo unspecified) [BSJ-03-123] (max 10 µM)
0.267

Complete the entry with area over the GR curve for O=C1NC(=NCc2cccs2)SC1=Cc1ccc2ncccc2c1 [R0-3306] (max 10 µM)
0.102

Input COc1cc([C@@H]2c3cc4c(cc3[C@@H](O[C@@H]3O[C@@H]5CO[C@@H](C)O[C@H]5[C@H](O)[C@H]3O)[C@H]3COC(=O)[C@H]23)OCO4)cc(OC)c1O [Etoposide] (max 10 µM) , output reported area over the GR curve.
0.362

Return value of area over the GR curve for input N.N.[Cl][Pt][Cl] [Cisplatin] (max 10 µM) , no commentary.
0.0713

Look up area over the GR curve of CN(C)C/C=C/C(=O)Nc1ccc(C(=O)Nc2cccc(Nc3cc(-c4c[nH]c5ccccc45)ncn3)c2)cc1 [THZ-P1-2] (max 10 µM) and report it.
0.533

Please indicate area over the GR curve recorded for CO[C@@H](C)Cn1c(=O)n(C)c2cnc3ccc(-c4cncc(C(C)(C)O)c4)cc3c21 (max 10 µM)
0.851

----------
System: BT20
Test: area over the GR curve, 72 h; higher = more effect;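 further: Dye Drop or Deep Dye Drop imaging of viable cells in 384-well plates (Hoechst nuclei, LIVE/DEAD dye), nine half-log doses, GR normalized to DMSO controls and time-zero plates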
quantity kind: area over the GR curve
Answer format reminder: number followed by unit.

molecule: CN1CCN(C(=O)c2ccc3cc(CCNc4ncnc5ccc(C#N)cc45)ccc3c2)CC1 [senexin b] (max 10 µM)
area over the GR curve: 0.275 GR
--
molecule: COc1ccc2c(c1)[C@]1(C[C@H]1c1ccc3c(/C=C/c4ccc(CN5C[C@@H](C)O[C@@H](C)C5)cc4)n[nH]c3c1)C(=O)N2
area over the GR curve: 1.07 GR
--
molecule: COc1cc2nccc(Oc3ccc(NC(=O)C4(C(=O)Nc5ccc(F)cc5)CC4)cc3)c2cc1OC [Cabozantinib] (max 10 µM)
area over the GR curve: 0.0446 GR
--
molecule: CCOc1cc2ncc(C#N)c(Nc3ccc(OCc4ccccn4)c(Cl)c3)c2cc1NC(=O)/C=C/CN(C)C [Neratinib/HKI272] (max 3.162 µM)
area over the GR curve: 0.147 GR
--
molecule: Cc1cc(C(C)Nc2ccccc2)c2nc(N3CCOCC3)cc(=O)n2c1 (stereo not drawn) [TGX221] (max 10 µM)
area over the GR curve: -0.0612 GR
--
molecule: CN(C)C/C=C/C(=O)Nc1ccc(O[C@@H]2CCC[C@@H](Nc3ncc(Cl)c(-c4c[nH]c5ccccc45)n3)C2)cc1 [BSJ-01-175] (max 10 µM)
area over the GR curve: 0.812 GR
--
molecule: CN1CC[C@H](c2c(O)cc(O)c3c(=O)cc(-c4ccccc4Cl)oc23)[C@H](O)C1 [Flavopiridol] (max 1 µM)
area over the GR curve: 0.334 GR

// moving on: another record for area over the GR curve
Report area over the GR curve for CCc1cncnc1N1CCN(Cc2nc3ccc(C(F)(F)F)cc3[nH]2)CC1 (max 10 µM)
-0.0022 GR

----------
Test system: CAMA1
Assay: GRmax, 72 h; higher = less effect;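 further: breast cell lines in 384-well plates, nine doses across a 10^4 range, Dye Drop imaging of viable cells vs DMSO and time-zero plates, GR 0 means no net growth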
Collected GRmax, 72 h values appear next to each entry.
Hi! Could you send only the number? It should be in GR, unit omitted.

compound: CNC(=O)c1cccc(-c2ccc3c(N4CCOC[C@@H]4C)nc(N4CCOC[C@@H]4C)nc3n2)c1 [AZD2014] (max 10 µM)
GRmax, 72 h [GR]: -0.0933
--
compound: NC1(C(=O)N[C@@H](CCO)c2ccc(Cl)cc2)CCN(c2nc[nH]c3nccc2-3)CC1 [AZD5363] (max 10 µM)
GRmax, 72 h [GR]: -0.124
--
compound: CN(C)C/C=C/C(=O)Nc1ccc(C(=O)Nc2cccc(Nc3cc(-c4c[nH]c5ccccc45)ncn3)c2)cc1 [THZ-P1-2] (max 10 µM)
GRmax, 72 h [GR]: -0.626
--
compound: CS(=O)(=O)N1CCN(Cc2cc3nc(-c4cccc5[nH]ncc45)nc(N4CCOCC4)c3s2)CC1 [Pictilisib/GDC0941] (max 10 µM)
GRmax, 72 h [GR]: -0.237
--
compound: CCC(=O)Nc1ccc(C(=O)Nc2ccc(Nc3ncc4c(n3)N(C)c3ccc(C)cc3C(=O)N4C)cc2)cc1 [FMF-03-145-1]
GRmax, 72 h [GR]: 0.0253

Write GRmax, 72 h of CN(C)C(=O)c1cc2cnc(Nc3ccc(N4CCNCC4)cn3)nc2n1C1CCCC1 [LEE011/Ribociclib] (max 10 µM) ; system used: CAMA1
0.122

Report its GRmax, 72 h with CAMA1 as the test system: CN1CCN(C(=O)c2ccc3cc(CCNc4ncnc5ccc(C#N)cc45)ccc3c2)CC1 [senexin b] (max 10 µM)
0.229
